A compilation of published pIC50 results with Thymidylate synthase (Mus musculus).
Sequence (P07607 whole entry): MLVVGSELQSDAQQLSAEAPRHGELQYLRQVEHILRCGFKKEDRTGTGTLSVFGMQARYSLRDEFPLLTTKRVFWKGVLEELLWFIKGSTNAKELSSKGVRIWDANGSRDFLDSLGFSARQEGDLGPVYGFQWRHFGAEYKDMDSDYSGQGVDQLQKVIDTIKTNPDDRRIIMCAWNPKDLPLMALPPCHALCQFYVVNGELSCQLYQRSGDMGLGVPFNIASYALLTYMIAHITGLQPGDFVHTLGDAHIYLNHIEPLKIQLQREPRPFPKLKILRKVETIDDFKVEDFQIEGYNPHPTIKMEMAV
// scale note: pIC50 = -log10(conc_M); give the bare number

Query :: Enter pIC50 (test system Thymidylate synthase (Mus musculus)) for Cc1nc(O)c2cc(N(CCF)Cc3ccc(C(=O)N[C@@H](CCC(=O)O)C(=O)O)s3)ccc2n1
Result :: 5.00

Query :: Supply pIC50 measured with Thymidylate synthase (Mus musculus) for Cc1nc(O)c2cc(CN(CCCO)c3cnc(C(=O)N[C@H](CCC(=O)O)C(=O)O)s3)ccc2n1 .
Result :: 5.76

Query :: With Thymidylate synthase (Mus musculus) as the test system, provide measured pIC50 for this compound: Cc1nc2ccc(CN(CCCO)c3ccc(C(=O)N[C@@H](CCC(=O)O)C(=O)O)c(F)c3)cc2c(=O)[nH]1
Result :: 6.23

Query :: Provide measured pIC50 on Thymidylate synthase (Mus musculus) for Cc1nc(O)c2cc(CN(C)c3cnc(C(=O)N[C@H](CCC(=O)O)C(=O)O)s3)ccc2n1 please.
Result :: 6.38
